Value source: the kinase profiling compilation of Christmann-Franck et al. (2016)

Biological target: SRPK2 (human)
Test: Caliper, Mobility shift assay off-chip
Conditions: compound 0.02 µM
Please respond with reported inhibition for every item in the list.
# number only, unit % dropped from output

Input: Quick one: inhibition of Cc1ccc(Nc2nccc(N(C)c3ccc4c(C)n(C)nc4c3)n2)cc1S(N)(=O)=O ?
Output: -4.8

Input: Okay, and CNC(=O)c1cc(Oc2ccc(NC(=O)Nc3ccc(Cl)c(C(F)(F)F)c3)cc2)ccn1 ?
Output: -5.7

Input: Okay, and CNC(=O)c1ccccc1Sc1ccc2c(/C=C/c3ccccn3)n[nH]c2c1 ?
Output: -6.5

Input: Ok, now COc1cc2c(Oc3ccc4[nH]c(C)cc4c3F)ncnc2cc1OCCCN1CCCC1
Output: -7.9

---

Biological target: MAPKAPK2 (human)
Assay: Caliper, Mobility shift assay off-chip
Conditions: compound 0.02 µM
Assign inhibition to each entry below.
The reply should be a number in %, with the unit left off.

Input: Given the entry CNC(=O)c1ccccc1Sc1ccc2c(/C=C/c3ccccn3)n[nH]c2c1 , what inhibition was observed with MAPKAPK2 (human)?
Output: -0.8

Input: Also COc1cc2c(Oc3ccc4[nH]c(C)cc4c3F)ncnc2cc1OCCCN1CCCC1 , if possible.
Output: 6.1

Input: Query Cc1ccc(Nc2nccc(N(C)c3ccc4c(C)n(C)nc4c3)n2)cc1S(N)(=O)=O next
Output: 5.5

Input: Record: CNC(=O)c1cc(Oc2ccc(NC(=O)Nc3ccc(Cl)c(C(F)(F)F)c3)cc2)ccn1
Output: -7.2

---

Target: RPS6KA2 KD1 KD2 (human)
Test: Caliper, Mobility shift assay off-chip
Conditions: compound 0.02 µM
reported.endpoint: inhibition (%)
# value in %; strip the unit string

Input: Param readout = inhibition; param system = RPS6KA2 KD1 KD2 (human); param query = CNC(=O)c1ccccc1Sc1ccc2c(/C=C/c3ccccn3)n[nH]c2c1 ; response: value
Output: 6

Input: Check Cc1ccc(Nc2nccc(N(C)c3ccc4c(C)n(C)nc4c3)n2)cc1S(N)(=O)=O too.
Output: 6.3

Input: Another: CNC(=O)c1cc(Oc2ccc(NC(=O)Nc3ccc(Cl)c(C(F)(F)F)c3)cc2)ccn1
Output: -4.3

Input: Also need COc1cc2c(Oc3ccc4[nH]c(C)cc4c3F)ncnc2cc1OCCCN1CCCC1 , thanks.
Output: 3.9

---

Target: MAP2K5 (human) (UniProt Q13163)
Sequence (Q13163 whole entry, looked up): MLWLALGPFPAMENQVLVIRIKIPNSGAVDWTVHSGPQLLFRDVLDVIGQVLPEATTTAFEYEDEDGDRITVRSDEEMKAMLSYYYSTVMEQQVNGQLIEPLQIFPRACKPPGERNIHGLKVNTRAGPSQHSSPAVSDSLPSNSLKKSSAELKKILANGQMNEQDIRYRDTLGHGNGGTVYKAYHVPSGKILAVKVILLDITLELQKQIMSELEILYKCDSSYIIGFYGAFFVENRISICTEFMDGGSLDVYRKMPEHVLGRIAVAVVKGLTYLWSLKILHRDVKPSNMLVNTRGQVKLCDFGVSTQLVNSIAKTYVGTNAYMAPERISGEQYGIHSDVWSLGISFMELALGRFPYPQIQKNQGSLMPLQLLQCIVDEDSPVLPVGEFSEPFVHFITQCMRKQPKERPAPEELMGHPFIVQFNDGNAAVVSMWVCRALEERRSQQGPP
Assay: ELISA
Conditions: compound 0.2 µM
reported.endpoint: inhibition (%)
// units = %; emit number, no label

Input: Quick check: inhibition of Cc1ccc(Nc2nccc(N(C)c3ccc4c(C)n(C)nc4c3)n2)cc1S(N)(=O)=O ?
Output: 0

Input: Another compound to look at: COc1cc2c(Oc3ccc4[nH]c(C)cc4c3F)ncnc2cc1OCCCN1CCCC1
Output: -8.2

Input: Next record, please: CNC(=O)c1cc(Oc2ccc(NC(=O)Nc3ccc(Cl)c(C(F)(F)F)c3)cc2)ccn1
Output: 6.2

Input: Note, next up: CCN(CC)CCNC(=O)c1c(C)[nH]c(/C=C2\C(=O)Nc3ccc(F)cc32)c1C
Output: 32.7

---

Answer each item with its documented inhibition.
Target: UniProt Q8IY84
Sequence (Q8IY84 whole entry, looked up): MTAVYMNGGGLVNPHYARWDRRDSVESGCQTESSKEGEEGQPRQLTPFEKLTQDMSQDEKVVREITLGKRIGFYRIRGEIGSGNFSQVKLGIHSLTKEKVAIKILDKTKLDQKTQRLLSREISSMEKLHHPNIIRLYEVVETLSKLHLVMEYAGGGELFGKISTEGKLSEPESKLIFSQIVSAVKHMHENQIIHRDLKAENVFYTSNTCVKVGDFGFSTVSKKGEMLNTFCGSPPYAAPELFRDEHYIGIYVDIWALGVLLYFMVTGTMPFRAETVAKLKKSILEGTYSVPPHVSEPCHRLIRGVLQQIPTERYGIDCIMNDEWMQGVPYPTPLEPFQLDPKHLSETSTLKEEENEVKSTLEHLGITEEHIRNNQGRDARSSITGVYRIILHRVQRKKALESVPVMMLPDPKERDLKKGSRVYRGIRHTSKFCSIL
Test: Caliper, Mobility shift assay off-chip
Conditions: compound 0.02 µM
Numeric answer only, unit % assumed.

Input: Return reported inhibition; argument: COc1cc2c(Oc3ccc4[nH]c(C)cc4c3F)ncnc2cc1OCCCN1CCCC1
Output: 15.8

Input: Please do the same for Cc1ccc(Nc2nccc(N(C)c3ccc4c(C)n(C)nc4c3)n2)cc1S(N)(=O)=O as well.
Output: -11.7

Input: Would you kindly repeat that for CNC(=O)c1cc(Oc2ccc(NC(=O)Nc3ccc(Cl)c(C(F)(F)F)c3)cc2)ccn1 ?
Output: -3.6

Input: Same lookup for CNC(=O)c1ccccc1Sc1ccc2c(/C=C/c3ccccn3)n[nH]c2c1 , please.
Output: -10.4

---

Target: STK24 (human)
Assay: Caliper, Mobility shift assay off-chip
Conditions: compound 0.2 µM
Please go through the items and note down their inhibition.
# value in %; strip the unit string

Input: Which value of inhibition has been reported for CNC(=O)c1cc(Oc2ccc(NC(=O)Nc3ccc(Cl)c(C(F)(F)F)c3)cc2)ccn1 in the records?
Output: 5.6

Input: Do the same for COc1cc2c(Oc3ccc4[nH]c(C)cc4c3F)ncnc2cc1OCCCN1CCCC1 please
Output: 12.8

Input: Further, for CCN(CC)CCNC(=O)c1c(C)[nH]c(/C=C2\C(=O)Nc3ccc(F)cc32)c1C ?
Output: 47.8

Input: Try Cc1ccc(Nc2nccc(N(C)c3ccc4c(C)n(C)nc4c3)n2)cc1S(N)(=O)=O next.
Output: 3.4

---

Target: UniProtKB O14965
Sequence (O14965 whole entry, looked up): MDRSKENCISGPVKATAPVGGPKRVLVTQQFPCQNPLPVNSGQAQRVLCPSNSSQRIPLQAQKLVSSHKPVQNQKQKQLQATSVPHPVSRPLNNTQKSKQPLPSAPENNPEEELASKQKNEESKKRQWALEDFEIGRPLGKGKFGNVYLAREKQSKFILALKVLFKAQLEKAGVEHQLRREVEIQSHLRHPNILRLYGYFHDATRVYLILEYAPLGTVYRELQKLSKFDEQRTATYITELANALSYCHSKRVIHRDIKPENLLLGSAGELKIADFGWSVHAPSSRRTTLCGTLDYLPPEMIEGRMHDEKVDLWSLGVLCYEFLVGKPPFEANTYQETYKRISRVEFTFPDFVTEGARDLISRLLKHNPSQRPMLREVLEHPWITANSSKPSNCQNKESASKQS
Experiment: Caliper, Mobility shift assay off-chip
Settings: compound 0.2 µM
reported.endpoint: inhibition
Answer as a quantity: numeral, then unit.

Input: Name the reported inhibition value associated with the compound CNC(=O)c1cc(Oc2ccc(NC(=O)Nc3ccc(Cl)c(C(F)(F)F)c3)cc2)ccn1
Output: 5.4%

Input: Moving on to the next compound: COc1cc2c(Oc3ccc4[nH]c(C)cc4c3F)ncnc2cc1OCCCN1CCCC1
Output: 4.9%

Input: Also need CCN(CC)CCNC(=O)c1c(C)[nH]c(/C=C2\C(=O)Nc3ccc(F)cc32)c1C , thanks.
Output: 31.1%

Input: Next compound up: Cc1ccc(Nc2nccc(N(C)c3ccc4c(C)n(C)nc4c3)n2)cc1S(N)(=O)=O
Output: 40.7%

---

Molecular target: NEK1 (human)
Test: Caliper, Mobility shift assay off-chip
Details: compound 0.02 µM
Hi there, I'd appreciate the recorded inhibition for every entry that follows.
Reply with just the number (in %).

Input: Given the entry Cc1ccc(Nc2nccc(N(C)c3ccc4c(C)n(C)nc4c3)n2)cc1S(N)(=O)=O , report its measured inhibition.
Output: -4.7

Input: How about this molecule: CNC(=O)c1cc(Oc2ccc(NC(=O)Nc3ccc(Cl)c(C(F)(F)F)c3)cc2)ccn1
Output: -5.2

Input: One more molecule: COc1cc2c(Oc3ccc4[nH]c(C)cc4c3F)ncnc2cc1OCCCN1CCCC1
Output: -5

Input: And what about the molecule CNC(=O)c1ccccc1Sc1ccc2c(/C=C/c3ccccn3)n[nH]c2c1 ?
Output: -8.1

---

Target: TSSK2 (human) (UniProt Q96PF2)
Sequence (Q96PF2 whole entry, looked up): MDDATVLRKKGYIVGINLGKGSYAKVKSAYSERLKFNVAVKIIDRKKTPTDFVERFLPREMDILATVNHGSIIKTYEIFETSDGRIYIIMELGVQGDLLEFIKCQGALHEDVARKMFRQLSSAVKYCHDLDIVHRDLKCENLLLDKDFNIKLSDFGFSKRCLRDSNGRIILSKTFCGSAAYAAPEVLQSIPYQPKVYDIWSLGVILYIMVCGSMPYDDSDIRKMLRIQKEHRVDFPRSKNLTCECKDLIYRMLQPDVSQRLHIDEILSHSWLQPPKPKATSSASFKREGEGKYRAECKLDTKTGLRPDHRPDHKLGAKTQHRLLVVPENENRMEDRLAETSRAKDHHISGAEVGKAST
Experiment: Caliper, Mobility shift assay off-chip
Conditions: compound 0.02 µM
Would you mind telling me the reported inhibition of each entry?
The answer is to be given in %; state only the numeric part.

Input: Any idea what inhibition came out for Cc1ccc(Nc2nccc(N(C)c3ccc4c(C)n(C)nc4c3)n2)cc1S(N)(=O)=O on TSSK2 (human) (UniProt Q96PF2)?
Output: -4.3

Input: Now the same for CNC(=O)c1ccccc1Sc1ccc2c(/C=C/c3ccccn3)n[nH]c2c1
Output: -5.4

Input: Cool, now COc1cc2c(Oc3ccc4[nH]c(C)cc4c3F)ncnc2cc1OCCCN1CCCC1
Output: -4.1

Input: Follow-up item: CNC(=O)c1cc(Oc2ccc(NC(=O)Nc3ccc(Cl)c(C(F)(F)F)c3)cc2)ccn1
Output: -3.9

---

Target: EPHA8 (human) (UniProt P29322)
Sequence (P29322 whole entry, looked up): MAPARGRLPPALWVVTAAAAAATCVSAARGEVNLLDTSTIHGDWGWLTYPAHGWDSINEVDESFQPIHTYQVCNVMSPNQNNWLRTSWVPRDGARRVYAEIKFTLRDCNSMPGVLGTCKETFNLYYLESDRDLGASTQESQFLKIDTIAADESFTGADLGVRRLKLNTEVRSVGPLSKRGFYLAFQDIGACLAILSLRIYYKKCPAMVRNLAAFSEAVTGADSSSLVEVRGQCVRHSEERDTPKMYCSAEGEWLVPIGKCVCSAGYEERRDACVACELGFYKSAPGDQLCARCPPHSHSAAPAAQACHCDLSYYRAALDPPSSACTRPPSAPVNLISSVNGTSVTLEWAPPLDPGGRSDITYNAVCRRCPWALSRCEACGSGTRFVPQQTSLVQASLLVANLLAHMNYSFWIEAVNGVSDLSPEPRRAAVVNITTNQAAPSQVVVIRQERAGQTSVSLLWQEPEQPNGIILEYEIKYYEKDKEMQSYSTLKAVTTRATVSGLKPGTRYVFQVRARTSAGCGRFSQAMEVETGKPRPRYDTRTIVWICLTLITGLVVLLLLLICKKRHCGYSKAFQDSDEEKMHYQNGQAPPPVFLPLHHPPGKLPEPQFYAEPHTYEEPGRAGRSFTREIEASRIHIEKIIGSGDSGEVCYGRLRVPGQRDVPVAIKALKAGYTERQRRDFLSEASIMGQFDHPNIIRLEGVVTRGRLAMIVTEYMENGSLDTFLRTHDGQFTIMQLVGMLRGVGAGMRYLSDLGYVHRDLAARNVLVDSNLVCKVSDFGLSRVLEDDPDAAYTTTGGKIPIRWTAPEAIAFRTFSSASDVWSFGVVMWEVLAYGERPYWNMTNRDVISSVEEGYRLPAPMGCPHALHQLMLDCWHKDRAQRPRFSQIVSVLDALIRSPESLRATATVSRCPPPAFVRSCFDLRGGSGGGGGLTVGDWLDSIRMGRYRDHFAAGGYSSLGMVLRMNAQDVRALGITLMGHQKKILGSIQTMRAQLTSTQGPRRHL
Test: Caliper, Mobility shift assay off-chip
Conditions: compound 0.2 µM
reported.endpoint: inhibition (%)
Give just the numeric value; % need not be written.

Input: Form field: inhibition recorded for Cc1ccc(Nc2nccc(N(C)c3ccc4c(C)n(C)nc4c3)n2)cc1S(N)(=O)=O with EPHA8 (human) (UniProt P29322) (enter value)
Output: 10.8

Input: And for CNC(=O)c1cc(Oc2ccc(NC(=O)Nc3ccc(Cl)c(C(F)(F)F)c3)cc2)ccn1 ?
Output: 37.2

Input: Another: CCN(CC)CCNC(=O)c1c(C)[nH]c(/C=C2\C(=O)Nc3ccc(F)cc32)c1C
Output: -0.2

Input: Queued: COc1cc2c(Oc3ccc4[nH]c(C)cc4c3F)ncnc2cc1OCCCN1CCCC1
Output: 4.7

---

Biological target: BRSK1 (human) (UniProt Q8TDC3)
Sequence (Q8TDC3 whole entry, looked up): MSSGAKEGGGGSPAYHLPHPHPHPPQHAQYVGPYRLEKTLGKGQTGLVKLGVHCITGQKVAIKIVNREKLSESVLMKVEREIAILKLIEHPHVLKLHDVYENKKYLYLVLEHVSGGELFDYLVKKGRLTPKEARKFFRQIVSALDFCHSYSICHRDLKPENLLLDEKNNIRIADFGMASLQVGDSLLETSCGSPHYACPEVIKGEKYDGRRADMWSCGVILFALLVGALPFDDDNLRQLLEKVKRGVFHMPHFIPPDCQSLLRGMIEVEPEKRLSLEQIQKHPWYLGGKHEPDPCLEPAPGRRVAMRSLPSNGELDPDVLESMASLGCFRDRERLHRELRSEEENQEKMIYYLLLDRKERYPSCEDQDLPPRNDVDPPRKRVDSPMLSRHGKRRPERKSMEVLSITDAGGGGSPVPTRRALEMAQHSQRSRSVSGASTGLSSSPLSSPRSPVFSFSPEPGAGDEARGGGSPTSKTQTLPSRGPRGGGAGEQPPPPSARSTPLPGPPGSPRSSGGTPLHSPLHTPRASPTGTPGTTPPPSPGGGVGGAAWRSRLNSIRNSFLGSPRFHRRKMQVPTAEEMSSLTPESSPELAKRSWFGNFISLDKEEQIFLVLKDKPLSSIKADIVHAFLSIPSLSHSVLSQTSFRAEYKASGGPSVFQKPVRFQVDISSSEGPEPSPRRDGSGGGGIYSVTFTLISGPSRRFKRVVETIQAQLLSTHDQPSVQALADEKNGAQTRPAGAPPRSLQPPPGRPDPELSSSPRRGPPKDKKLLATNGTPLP
Test: Caliper, Mobility shift assay off-chip
Conditions: compound 0.2 µM
Task for the reader: assign each of the following molecules its reported inhibition.

Input: Entry COc1cc2c(Oc3ccc4[nH]c(C)cc4c3F)ncnc2cc1OCCCN1CCCC1 has what inhibition?
Output: 7.5%

Input: How about Cc1ccc(Nc2nccc(N(C)c3ccc4c(C)n(C)nc4c3)n2)cc1S(N)(=O)=O ?
Output: 3.2%

Input: Next record, please: CNC(=O)c1cc(Oc2ccc(NC(=O)Nc3ccc(Cl)c(C(F)(F)F)c3)cc2)ccn1
Output: -6%

Input: What about this molecule? CCN(CC)CCNC(=O)c1c(C)[nH]c(/C=C2\C(=O)Nc3ccc(F)cc32)c1C
Output: 40%

---

Target: PRKCZ (human) (UniProt Q05513)
Sequence (Q05513 whole entry, looked up): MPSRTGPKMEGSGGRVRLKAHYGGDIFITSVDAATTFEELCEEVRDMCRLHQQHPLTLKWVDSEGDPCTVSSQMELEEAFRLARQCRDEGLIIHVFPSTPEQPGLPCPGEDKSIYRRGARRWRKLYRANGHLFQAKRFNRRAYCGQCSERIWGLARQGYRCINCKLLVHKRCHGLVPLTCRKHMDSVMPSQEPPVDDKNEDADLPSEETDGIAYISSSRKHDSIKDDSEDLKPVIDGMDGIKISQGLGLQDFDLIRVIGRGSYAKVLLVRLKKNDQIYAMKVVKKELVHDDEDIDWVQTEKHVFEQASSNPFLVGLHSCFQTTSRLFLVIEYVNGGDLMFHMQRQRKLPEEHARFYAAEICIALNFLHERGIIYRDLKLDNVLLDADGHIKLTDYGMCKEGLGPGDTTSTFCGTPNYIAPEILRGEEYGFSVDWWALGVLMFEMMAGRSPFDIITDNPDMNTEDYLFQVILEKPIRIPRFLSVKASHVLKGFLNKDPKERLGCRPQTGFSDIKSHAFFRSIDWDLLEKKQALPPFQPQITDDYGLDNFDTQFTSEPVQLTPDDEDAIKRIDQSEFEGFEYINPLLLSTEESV
Test: Caliper, Mobility shift assay off-chip
Conditions: compound 0.02 µM
Exercise: for every item that follows, state its recorded inhibition.
Provide only the numeric value, understood in %.

Input: // lookup inhibition for CNC(=O)c1cc(Oc2ccc(NC(=O)Nc3ccc(Cl)c(C(F)(F)F)c3)cc2)ccn1
Output: 0

Input: Let us now turn to Cc1ccc(Nc2nccc(N(C)c3ccc4c(C)n(C)nc4c3)n2)cc1S(N)(=O)=O
Output: 2.5

Input: Can you handle CNC(=O)c1ccccc1Sc1ccc2c(/C=C/c3ccccn3)n[nH]c2c1 next?
Output: -4.6

Input: Similarly, COc1cc2c(Oc3ccc4[nH]c(C)cc4c3F)ncnc2cc1OCCCN1CCCC1 ?
Output: 10.1
